Test system: Trypanosoma cruzi
Assay: Trypanosoma cruzi phosphomannomutase and mannose-1-phosphate guanylyltransferase assay
Type: functional
Design: scale not given: direction of the effect not stated beside the values
Details: 10 µM
Listed below: Percent Effect values for each entry.
Give your result in % as a bare value.

Some compounds with known Percent Effect results, for comparison:
Compound: COc1ncccc1CN1Cc2nnn(C)c2C(COCC2CC2)C1 (stereo unspecified)
Output Unit: %
Percent Effect: -5.62
--
Compound: c1ccc(-c2nnc(CNCCn3cccn3)o2)cc1
Output Unit: %
Percent Effect: 1.79
--
Compound: Cn1cc(Cl)cc1C(=O)N1CCN(Cc2ccsc2)CC1
Output Unit: %
Percent Effect: 4.13
--
Compound: OC(CN1CCN(Cc2ccc(F)c(F)c2)CC1)C1CC1 (stereo unspecified)
Output Unit: %
Percent Effect: 5.68

// lookup Percent Effect for Cc1ccc(C(NC(=O)CC2CCN(C(C)C)CC2)C(=O)O)cc1 (stereo unspecified)
1.74

Do the same for Cc1ccc(C2CCCCCN2Cc2cn(C)nc2C)s1 (stereo unspecified) please
1.48

----------
Biological target: Ubiquitin-activating enzyme e1, putative (Leishmania donovani (strain BPK282A1)) (UniProt E9BSI1)
Sequence (E9BSI1 as listed by the source): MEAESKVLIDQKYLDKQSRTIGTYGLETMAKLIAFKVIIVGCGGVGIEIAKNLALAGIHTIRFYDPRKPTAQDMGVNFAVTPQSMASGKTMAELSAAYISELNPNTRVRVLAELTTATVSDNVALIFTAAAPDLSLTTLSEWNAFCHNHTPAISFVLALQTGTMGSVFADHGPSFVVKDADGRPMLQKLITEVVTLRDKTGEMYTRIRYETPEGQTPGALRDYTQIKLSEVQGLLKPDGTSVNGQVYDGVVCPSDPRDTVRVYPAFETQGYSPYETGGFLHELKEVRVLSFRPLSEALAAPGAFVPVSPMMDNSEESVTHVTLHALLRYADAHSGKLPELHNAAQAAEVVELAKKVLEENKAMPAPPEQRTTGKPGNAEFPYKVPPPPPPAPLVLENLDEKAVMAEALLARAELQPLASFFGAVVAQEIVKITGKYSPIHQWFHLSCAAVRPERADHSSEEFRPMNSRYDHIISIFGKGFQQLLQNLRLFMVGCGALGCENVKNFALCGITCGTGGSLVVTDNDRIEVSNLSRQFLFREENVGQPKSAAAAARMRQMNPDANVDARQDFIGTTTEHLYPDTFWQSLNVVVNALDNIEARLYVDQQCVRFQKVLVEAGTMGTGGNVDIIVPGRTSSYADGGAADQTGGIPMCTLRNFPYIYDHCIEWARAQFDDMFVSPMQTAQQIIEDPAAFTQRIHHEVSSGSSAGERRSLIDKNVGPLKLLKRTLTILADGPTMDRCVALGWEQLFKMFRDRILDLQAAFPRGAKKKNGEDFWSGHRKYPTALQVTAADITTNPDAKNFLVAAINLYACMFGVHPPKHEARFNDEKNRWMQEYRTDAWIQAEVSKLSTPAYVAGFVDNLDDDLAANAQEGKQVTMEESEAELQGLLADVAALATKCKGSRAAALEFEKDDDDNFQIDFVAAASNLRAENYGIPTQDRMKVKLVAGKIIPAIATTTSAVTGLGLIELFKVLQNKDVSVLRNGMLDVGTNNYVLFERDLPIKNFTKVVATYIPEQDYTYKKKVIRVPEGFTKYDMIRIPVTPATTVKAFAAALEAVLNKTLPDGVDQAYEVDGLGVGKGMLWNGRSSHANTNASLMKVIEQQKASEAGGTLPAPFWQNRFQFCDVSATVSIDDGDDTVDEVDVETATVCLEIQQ
Test: Leishmania donovani Ubiquitin Activating Enzyme (LdE1)
Assay type: functional
Parameters: scale not given: direction of the effect not stated beside the values
Details: 30 µM
Measured potencies and affinities stand elsewhere.
Listed below: Percent Effect values for each entry.
Just so you know, I need the unit written after the number.

Some molecules with known Percent Effect results, for comparison:
Molecule: O=C(Cn1cnc(NC(=O)CC2CCCC2)n1)NCc1ccccc1
Percent Effect: 15.8%
--
Molecule: Cc1ccc(SCC(=O)NS(=O)(=O)c2ccc3c(c2)OCCO3)cc1
Percent Effect: -10.5%
--
Molecule: Cc1cc(=O)[nH]c(CCNC(=O)C(c2ccc(F)cc2)N(C)C)n1 (stereo unspecified)
Percent Effect: 11%
--
Molecule: Cn1ccc2c(C(=O)N3CCC(C(N)=O)CC3)cccc21
Percent Effect: 14.7%
--
Molecule: CCC(=O)N1Cc2nccn2CC(CN(C)Cc2cccnc2)C1 (stereo unspecified)
Percent Effect: 13.3%

// lookup Percent Effect for CC(=O)N1CCC(CN2CCN(Cc3nccn3C)C(C)C2)CC1 (stereo unspecified)
18.9%

Do the same for Cc1ccc(CC(=O)N2CCCC(c3cc(C)[nH]n3)C2)cn1 (stereo unspecified) please
13.5%

Do the same for CCC1=N[C@@]2(CC[C@@H]3CN(Cc4ccccc4F)C[C@@H]32)C(=O)N1CC please
0%

Do the same for Cc1nc(N2CCN(C(=O)c3ccc(O)cc3)CC2)c2cnn(C)c2n1 please
0%

Do the same for CC1CCN(CCNC(=O)c2ccccc2N2CCOCC2)CC1 please
11%

Do the same for O=C(NCCc1nnc2n1CCC2)NCC1(c2cccc(F)c2)CC1 please
-5.26%

----------
Molecular target: Sialic acid-binding Ig-like lectin 9 (Homo sapiens)
Test: Hs-Siglec9 ALPHAscreen SOP 20170721
Parameters: scale not given: direction of the effect not stated beside the values
Details: 10 µM
Measure Name: Percent Effect (%)
Give your result in % as a bare value.

Some compounds with known Percent Effect results, for comparison:
Compound: COc1cccc(S(=O)(=O)CCN2CCCN(C(C)=O)CC2)c1
System Name: Sialic acid-binding Ig-like lectin 9 (Homo sapiens)
Percent Effect, %: 13.1
//
Compound: Cc1oncc1C(=O)N1CCC2(C1)CN(c1cccnc1)C(=O)CN2C (stereo unspecified)
System Name: Sialic acid-binding Ig-like lectin 9 (Homo sapiens)
Percent Effect, %: -0.716
//
Compound: NC(=O)c1csc(C(=O)N2CCCCC2Cn2cccn2)c1 (stereo unspecified)
System Name: Sialic acid-binding Ig-like lectin 9 (Homo sapiens)
Percent Effect, %: 6.12
//
Compound: Cc1nc(Nc2nnc(C)s2)cc(C2CCCN2C)n1 (stereo unspecified)
System Name: Sialic acid-binding Ig-like lectin 9 (Homo sapiens)
Percent Effect, %: -11.6
//
Compound: CNC(=O)N1CC[C@H]2N(C)CC[C@@]2(C(=O)Nc2ccccc2)CC1
System Name: Sialic acid-binding Ig-like lectin 9 (Homo sapiens)
Percent Effect, %: 1.61

Please examine the following record next.
// lookup Percent Effect for COc1ccccc1C(=O)N1CCCC1Cn1cc(C)cn1 (stereo unspecified)
-6.09
